Provenance of the data: patent US7759101B2

System: ginsenoside glycosidases from A. niger
assay-text: Hydrolysis of ginsenosides with crude ginsenoside glycosidases from A. niger, products measured by TLC
Type: biochemical, Aspergillus niger
measurement-parameters: pH 5, 30° C., 18 hours
property: Percentage of Rh2 in the reaction product (%)

1. CC(C)=CCC[C@](C)(O[C@@H]1O[C@H](CO[C@@H]2OC[C@H](O)[C@H](O)[C@H]2O)[C@@H](O)[C@H](O)[C@H]1O)[C@H]1CC[C@]2(C)[C@@H]1[C@H](O)C[C@@H]1[C@@]3(C)CC[C@H](O[C@@H]4O[C@H](CO)[C@@H](O)[C@H](O)[C@H]4O[C@@H]4O[C@H](CO)[C@@H](O)[C@H](O)[C@H]4O)C(C)(C)[C@@H]3CC[C@]12C [Rb2, ginsenoside Rb2] | 3
